assay-info: Cmax in Sprague-Dawley rat at 0.5 mg/kg, iv measured upto 24 hrs by liquid chromatography tandem mass spectrometry
Type: ADME, organism-based
Parameters: time < 24 hrs, dose 0.5 mg/kg, route iv
applied-conditions: in vivo

| smiles-str | Cmax / ng/mL |
| --- | --- |
| CC(C)C[C@H](NC(=O)[C@H](Cc1ccccc1)NC(=O)c1c(F)cccc1F)B(O)O | 377 |

###

system-name: Proteasome Macropain subunit MB1 (Homo sapiens)
Sequence (P28074 whole entry): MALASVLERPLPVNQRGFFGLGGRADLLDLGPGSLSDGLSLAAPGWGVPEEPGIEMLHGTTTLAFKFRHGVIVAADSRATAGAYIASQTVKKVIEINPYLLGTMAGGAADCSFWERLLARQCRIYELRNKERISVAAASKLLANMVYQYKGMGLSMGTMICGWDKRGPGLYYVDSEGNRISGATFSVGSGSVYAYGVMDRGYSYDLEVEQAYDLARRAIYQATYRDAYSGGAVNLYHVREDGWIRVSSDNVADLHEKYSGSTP
assay-info: Inhibition of 20S proteasome beta5 subunit (unknown origin) using Suc-LLVY-AMC as flurogenic substrate measured after 1 hr by fluorescence based analysis
applied-conditions: read-out: pIC50 (converted)
Quick reference for IC50 among some compounds
result-type: IC50 (nM)

| smiles-str | result-type | readout-relation | reported |
| --- | --- | --- | --- |
| CC(C)C[C@H](NC(=O)[C@H](Cc1ccccc1)NC(=O)c1cc(F)ccc1F)B(O)O | IC50 | = | 6.03 |
| CC(C)C[C@H](NC(=O)[C@H](Cc1ccccc1)NC(=O)c1nc(Cl)ccc1Cl)B(O)O | IC50 | = | 4.27 |
| CC(C)C[C@H](NC(=O)[C@H](Cc1ccccc1)NC(=O)c1ccc(F)cc1F)B(O)O | IC50 | = | 4.79 |
| CC(C)C[C@H](NC(=O)[C@H](Cc1ccccc1)NC(=O)c1cc(Cl)ccc1Cl)C(=O)O | IC50 | = | 50.1 |
| CC(C)C[C@H](NC(=O)[C@H](Cc1ccccc1)NC(=O)c1cccc(F)c1F)B(O)O | IC50 | = | 1.12 |
| CC(C)C[C@H](NC(=O)[C@H](Cc1ccccc1)NC(=O)c1ccc(Cl)cc1Cl)B(O)O | IC50 | = | 3.47 |
| CC(C)C[C@H](NC(=O)[C@H](Cc1ccccc1)NC(=O)c1cccc(Cl)c1Cl)B(O)O | IC50 | = | 1.2 |
| CC(C)C[C@H](NC(=O)[C@H](Cc1ccc(O)cc1)NC(=O)c1cc(Cl)ccc1Cl)B(O)O | IC50 | = | 1 |
| CC(C)C[C@H](NC(=O)[C@@H](NC(=O)c1cc(Cl)ccc1Cl)c1ccccc1)B(O)O | IC50 | = | 7.08 |
| CC(C)C[C@H](NC(=O)[C@H](Cc1ccc2ccccc2c1)NC(=O)c1cc(Cl)ccc1Cl)B(O)O | IC50 | = | 12 |
| CC(C)C[C@H](NC(=O)c1ccc(CNC(=O)c2cc(Cl)ccc2Cl)cc1)B(O)O | IC50 | > | 50.1 |
| COc1ccc(Cl)cc1C(=O)N[C@@H](Cc1ccccc1)C(=O)N[C@@H](CC(C)C)B(O)O | IC50 | = | 8.32 |
| CC(C)C[C@H](NC(=O)[C@H](Cc1ccccc1)NC(=O)c1cnc2ccccc2n1)B(O)O | IC50 | = | 13.2 |
| CC(C)C[C@H](NC(=O)[C@H](Cc1ccccc1)NS(=O)(=O)c1cc(Cl)ccc1Cl)B(O)O | IC50 | = | 19.5 |
